- test system: Recombinant human FcγRIIIa-V158 (human, UniProt P08637 17-208)
- Sequence (P08637 17-208 F176V): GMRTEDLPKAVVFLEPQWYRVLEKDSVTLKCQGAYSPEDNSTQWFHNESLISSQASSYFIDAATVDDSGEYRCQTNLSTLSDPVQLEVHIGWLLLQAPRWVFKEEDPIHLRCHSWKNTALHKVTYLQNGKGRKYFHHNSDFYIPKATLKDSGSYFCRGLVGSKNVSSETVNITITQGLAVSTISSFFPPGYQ
- test name: SPR; -kif
parameter measured: Kd (nM)
Answers are plain numbers, in nM.

What measured Kd goes with human IgG1 antibody specific for protein 4, S239D + T256D/T307Q + R292C/V302C, -Kif (antibody) ASTKGPSVFPLAPSSKSTSGGTAALGCLVKDYFPEPVTVSWNSGALTSGVHTFPAVLQSSGLYSLSSVVTVPSSSLGTQTYICNVNHKPSNTKVDKKVEPKSCDKTHTCPPCPAPELLGGPDVFLFPPKPKDTLMISRDPEVTCVVVDVSHEDPEVKFNWYVDGVEVHNAKTKPCEEQYNSTYRCVSVLQVLHQDWLNGKEYKCKVSNKALPAPIEKTISKAKGQPREPQVYTLPPSRDELTKNQVSLTCLVKGFYPSDIAVEWESNGQPENNYKTTPPVLDSDGSFFLYSKLTVDKSRWQQGNVFSCSVMHEALHNHYTQKSLSLSPGK ?
87.5
